Experiment: cAMP Responsive Elements (CRE) small molecule agonists, cell-based qHTS assay: qHTS cell viability counter screen (AID 2060914);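 further: viability read after 3 h of compound exposure; nearly all actives have a fitted effect of over 50% in size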
Conditions: CRE-bla HEK293T viability, CellTiter-Glo luminescence, 5 h; series mostly up to 92.4 µM
Inconclusive results are not listed. Active and inactive are the calls of the source. The call rests on the fitted dose curve; in most records, active means well fitted cell-killing curve with a large enough effect in the repeat runs; inconclusive means weak or mixed curves, or effect the other way; inactive means flat fitted curve, though single readings scatter.

{"columns": ["Molecule", "activity change, negative = cytotoxicity"],
 "data": [
  ["C=CC(=O)OCCC(=O)O", "inactive"],
  ["OCCN(CCO)c1cccc(Cl)c1", "inactive"],
  ["CC(=O)c1ccc(Cl)c(Cl)c1Cl", "inactive"],
  ["CCCCOCCOC(=O)CCCCCCCCC(=O)OCCOCCCC", "inactive"],
  ["CC(C)c1c(C(=O)Nc2ccccc2)c(-c2ccccc2)c(-c2ccc(F)cc2)n1CC[C@@H](O)C[C@@H](O)CC(=O)O", "inactive"],
  ["c1ccc2[nH]ccc2c1", "inactive"],
  ["COc1ccc2[nH]cc(CCNC(C)=O)c2c1", "inactive"],
  ["CC(C)C[P+](C)(CC(C)C)CC(C)C", "inactive"],
  ["COc1ccc(N)c([N+](=O)[O-])c1", "inactive"],
  ["Clc1nnc(Cl)c2ccccc12", "inactive"],
  ["COCCCCCCCCOCCC[Si](C)(O[Si](C)(C)C)O[Si](C)(C)C", "inactive"],
  ["CCN(CC)CC1CCCCN1CC(=O)N1c2ccccc2C(=O)Nc2cccnc21 (stereo not drawn)", "inactive"],
  ["CCCc1ccc(N)cc1", "inactive"]
]}

# credit: PubChem BioAssay (Tox21)
